Tested on: S. pneumoniae D39V;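 also: first quartile when negative (synergy) and third quartile when positive (antagonism)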
Assay: Bliss interaction score (quartile over a dose matrix) (fitness difference); higher = more antagonism (negative = synergy)
measured.attribute: Bliss interaction score

{"columns": ["molecule", "numeric.readout"],
 "data": [
  ["CC[C@H]1OC(=O)[C@H](C)[C@@H](O[C@H]2C[C@@](C)(OC)[C@@H](O)[C@H](C)O2)[C@H](C)[C@@H](O[C@@H]2O[C@H](C)C[C@H](N(C)C)[C@H]2O)[C@](C)(O)C[C@@H](C)C(=O)[C@H](C)[C@@H](O)[C@]1(C)O [Erythromycin] + C[C@H]1COc2c(N3CCN(C)CC3)c(F)cc3c(=O)c(C(=O)O)cn1c23 [Levofloxacin]", 0.0979],
  ["CN[C@@H]1[C@H](O)[C@H](NC)[C@H]2O[C@@]3(O)C(=O)C[C@@H](C)O[C@H]3O[C@@H]2[C@H]1O [Spectinomycin] + COc1cc(Cc2cnc(N)nc2N)cc(OC)c1OC [Trimethoprim]", -0.161],
  ["CC(=O)NC[C@H]1CN(c2ccc(N3CCOCC3)c(F)c2)C(=O)O1 [Linezolid] + Cn1nnc(-c2ccc(-c3ccc(N4C[C@H](CO)OC4=O)cc3F)cn2)n1 [Tedizolid]", -0.148],
  ["CO[C@@]12[C@H](COC(N)=O)C3=C(C(=O)C(C)=C(N)C3=O)N1C[C@@H]1N[C@@H]12 [MitomycinC] + Cn1nnc(-c2ccc(-c3ccc(N4C[C@H](CO)OC4=O)cc3F)cn2)n1 [Tedizolid]", -0.124]
]}
